target: human melanocortin 4 receptor (human, UniProt P32245 1-332); assay: cell-based or functional assay
Sequence (P32245 whole entry): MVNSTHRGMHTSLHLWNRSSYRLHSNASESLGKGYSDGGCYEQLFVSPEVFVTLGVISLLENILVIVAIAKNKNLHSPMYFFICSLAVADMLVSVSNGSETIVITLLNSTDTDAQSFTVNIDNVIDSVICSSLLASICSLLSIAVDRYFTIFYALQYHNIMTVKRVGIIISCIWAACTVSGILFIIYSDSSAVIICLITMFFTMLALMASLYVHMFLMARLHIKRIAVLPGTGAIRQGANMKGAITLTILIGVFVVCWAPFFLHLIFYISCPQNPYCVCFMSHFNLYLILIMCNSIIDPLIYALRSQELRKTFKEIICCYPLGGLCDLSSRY
Positions of bridges follow the written chain, without caps; N, C: chain ends. Non-standard residues stand in square brackets, D forms with d. Phe(3,4-(OMe)2) = COc1ccc(C[C@H](N)C(=O)O)cc1OC; 1Nal = N[C@@H](Cc1cccc2ccccc12)C(=O)O; Orn = NCCC[C@H](N)C(=O)O
Task for the reader: assign each of the following binders its reported MC4R cAMP EC50.
# output: bare number, implied unit nM

Please report the recorded MC4R cAMP EC50 for cyclo(CAH[dF][Orn]WCAH[dF][Orn]W) (disulfide 1-7; SMILES C[C@@H]1NC(=O)[C@@H]2CSSC[C@H](NC(=O)[C@H](Cc3c[nH]c4ccccc34)NC(=O)[C@H](CCCN)NC(=O)[C@@H](Cc3ccccc3)NC(=O)[C@H](Cc3c[nH]cn3)NC1=O)C(=O)N[C@@H](C)C(=O)N[C@@H](Cc1c[nH]cn1)C(=O)N[C@H](Cc1ccccc1)C(=O)N[C@@H](CCCN)C(=O)N[C@@H](Cc1c[nH]c3ccccc13)C(=O)N2, also called c[c[Cys-Ala-His-D-Phe-Orn-Trp-Cys]-Ala-His-D-Phe-Orn-Trp]) [Chem. 16] .
0.21

What do you have for cyclo(CPH[dF]R[Phe(3,4-(OMe)2)]CAKKKR) (disulfide 1-7, also called c[c[Cys-Pro-His-D-Phe-Arg-3,4-DiMeO-Phe-Cys]-Ala-Lys-Lys-Lys-Arg]) [Chem. 94] ?
4.38

Another binder: cyclo(CAH[dF]R[1Nal]CAKKKW) (disulfide 1-7; SMILES C[C@@H]1NC(=O)[C@@H]2CSSC[C@H](NC(=O)[C@H](Cc3cccc4ccccc34)NC(=O)[C@H](CCCNC(=N)N)NC(=O)[C@@H](Cc3ccccc3)NC(=O)[C@H](Cc3c[nH]cn3)NC1=O)C(=O)N[C@@H](C)C(=O)N[C@@H](CCCCN)C(=O)N[C@@H](CCCCN)C(=O)N[C@@H](CCCCN)C(=O)N[C@@H](Cc1c[nH]c3ccccc13)C(=O)N2, also called c[c[Cys-Ala-His-D-Phe-Arg-1-Nal-Cys]-Ala-Lys-Lys-Lys-Trp]) [Chem. 64]
0.03
